Values were extracted from paper PMC9241669.

- Test system: S. aureus SH1000
- Protocol summary: Adhesion of S. aureus SH1000 to immobilized fibrinogen (crystal violet)
- Type: cell-based, Staphylococcus aureus
- Measurement context: Staphylococcus aureus, SH1000, read-out: IC50, inhibition of adhesion to fibrinogen, S. aureus SH1000 stationary phase
Endpoint name: pIC50
Hey, just a heads up that pIC50 is the negative log base 10 of the concentration in molar.

Requested field: pIC50. Item: Nc1ccc(S(=O)(=O)c2ccc(NCN3C(=O)NC(=O)C(=O)C3=O)cc2)cc1 [Allantodapsone]
5.12

----------
- Test system: L. lactis ClfB
- Protocol summary: Adhesion of L. lactis ClfB to immobilized fibrinogen
- Type: cell-based, Lactococcus lactis
- Measurement context: Lactococcus lactis, read-out: IC50, inhibition of adhesion to fibrinogen
- Protocol: FIG 1 Allantodapsone inhibits S. aureus Newman adhesion to fibrinogen. Dose response curves for S. aureus Newman (A), L. lactis ClfA (B), and L. lactis ClfB (C) adhesion to fibrinogen. Fibrinogen was used to coat plates at 4°C overnight at 10 μg/mL. […] The dye was dissolved in acetic acid and the absorbance measured at 570 nm. […] Adhesion assays were carried out according to Hartford et al. ([37]). […] Plates were read at 570 nm on a Wallac Victor2, (Shelton, CT, USA). […]
Endpoint name: pIC50
Hey, just a heads up that pIC50 is the negative log base 10 of the concentration in molar.

Requested field: pIC50. Item: "Nc1ccc(S(=O)(=O)c2ccc(NCN3C(=O)NC(=O)C(=O)C3=O)cc2)cc1"
4.96
